Just for reference, a collection of fitness landscapes (doi:10.1016/j.celrep.2020.107928) is where these values come from.

B1: Caulobacter ParB omega fusion; a variant is named by its letters at X, in order, B8GW30 (parent)
chain: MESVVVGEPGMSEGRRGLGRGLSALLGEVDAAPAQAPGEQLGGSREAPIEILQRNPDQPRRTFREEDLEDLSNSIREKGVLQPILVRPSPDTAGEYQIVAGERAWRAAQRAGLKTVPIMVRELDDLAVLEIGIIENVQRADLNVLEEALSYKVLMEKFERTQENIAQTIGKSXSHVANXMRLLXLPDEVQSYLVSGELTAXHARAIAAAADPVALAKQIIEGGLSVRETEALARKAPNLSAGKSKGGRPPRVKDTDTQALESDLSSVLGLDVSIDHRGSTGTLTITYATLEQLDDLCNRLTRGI

Variants of: B1
MEASUREMENT_NOTES: one-hybrid fitness for binding NBS DNA (the Noc-binding site; scaled: cognate 1, non-cognate 0); higher = stronger binding
TEST_PARAMETERS: with NBS DNA site
In all, about 81,000 sequences were measured (“one-hybrid fitness for binding NBS DNA”: median about -0.1, highest 2% from about 0.36 on). The sample holds the highest values, similar sequences and a random draw of the others, so the mix is not that of the screen.
REPORTED_ENDPOINT: one-hybrid fitness for binding NBS DNA

{"MUTANT_ID": "GLKV", "RECORDED_MEASUREMENT": "≤ 0.2"}
{"MUTANT_ID": "QKMC", "RECORDED_MEASUREMENT": "≤ 0.2"}
{"MUTANT_ID": "DELG", "RECORDED_MEASUREMENT": "≤ 0.2"}
{"MUTANT_ID": "FTRY", "RECORDED_MEASUREMENT": "≤ 0.2"}
{"MUTANT_ID": "QKMR", "RECORDED_MEASUREMENT": 0.51}
{"MUTANT_ID": "YDYM", "RECORDED_MEASUREMENT": "≤ 0.2"}
{"MUTANT_ID": "RKTD", "RECORDED_MEASUREMENT": "≤ 0.2"}
{"MUTANT_ID": "QRMF", "RECORDED_MEASUREMENT": 0.25}
{"MUTANT_ID": "FANT", "RECORDED_MEASUREMENT": "≤ 0.2"}
{"MUTANT_ID": "DLTY", "RECORDED_MEASUREMENT": "≤ 0.2"}
{"MUTANT_ID": "IYTG", "RECORDED_MEASUREMENT": "≤ 0.2"}
